Please go through the items and note down their Activity (%) sc.
Tested on: ANKA strain of P. Berghei
ASSAY_PROCEDURE: single dose STI in vivo screen in infected Moro SPF mice
TEST_CONDITIONS: percent reduction in parasitemia day 3 post-infection; single 100 mg/kg sc

Study these solved cases before continuing.
# MOLECULE, SUBJECT_OF_TEST, Activity (%) sc
measured = [
    ("C1CCC2(CC1)OOC1(CCCCC1)O2 [OZ01]", "ANKA strain of P. Berghei", "0/0%"),
    ("CCO[C@H]1O[C@@H]2O[C@@]3(C)CC[C@H]4[C@H](C)CC[C@@H]([C@H]1C)[C@@]24OO3 [Arteether, arteether, reference compound]", "ANKA strain of P. Berghei", "100%"),
]

Give me Activity (%) sc for each of these molecules, listed below.
1. O=C1CCC2(CC1)OOC1(CCCCC1)O2 [OZ02]
2. CCOC(=O)CCC1CCCCC12OOC1(CCCCC1)O2 (centres unmarked) [OZ07]
3. C1C2CC3CC1CC(C2)C31OOC2(O1)C1CC3CC(C1)CC2C3 (centres unmarked) [OZ04]

0/0%
0/0%
0/0%
